Tested on: Streptococcus pneumoniae ATCC 49619
Assay: checkerboard synergy assay with iclaprim
Type: cell-based
Details: antibiotic in combination with iclaprim; S. pneumoniae 49619
Kindly state Σ FIC for each of the entries shown.

Some solved entries appear below for comparison.
INSERT INTO results (compound, target_under_test, experimental_readout, reported) VALUES
  ('CCn1cc(C(=O)O)c(=O)c2cc(F)c(N3CCNC(C)C3)c(F)c21 (centres unmarked)', 'Streptococcus pneumoniae ATCC 49619', 'Σ FIC', '0.75-1.13'),
  ('CC[C@H]1OC(=O)[C@H](C)[C@@H](O[C@H]2C[C@@](C)(OC)[C@@H](O)[C@H](C)O2)[C@H](C)[C@@H](O[C@@H]2O[C@H](C)C[C@H](N(C)C)[C@H]2O)[C@](C)(O)C[C@@H](C)C(=O)[C@H](C)[C@@H](O)[C@]1(C)O', 'Streptococcus pneumoniae ATCC 49619', 'Σ FIC', '1.06-1.50'),
  ('CCC[C@@H]1C[C@@H](C(=O)N[C@@H]([C@H]2O[C@H](SC)[C@H](O)[C@@H](O)[C@H]2O)[C@H](C)Cl)N(C)C1', 'Streptococcus pneumoniae ATCC 49619', 'Σ FIC', '1.00-1.25'),
  ('CO[C@@H]1[C@@H](OC(N)=O)[C@@H](O)[C@H](Oc2ccc3c(O)c(NC(=O)c4ccc(O)c(CC=C(C)C)c4)c(=O)oc3c2C)OC1(C)C', 'Streptococcus pneumoniae ATCC 49619', 'Σ FIC', '0.75-1.13');

Here is another compound to look at.
q: Answer with the recorded Σ FIC for the compound listed here: "CN(C)[C@@H]1C(O)=C(C(N)=O)C(=O)[C@@]2(O)C(O)=C3C(=O)c4c(O)cccc4[C@@](C)(O)[C@H]3C[C@@H]12"
a: 0.75-1.25

----------
System: Streptococcus pneumoniae ATCC 49619
Test: checkerboard synergy assay with iclaprim
Format: cell-based
Settings: antibiotic in combination with iclaprim; S. pneumoniae 49619
Description: The synergistic potential of iclaprim against Gram-positive and Gram-negative bacteria was determined using the checkerboard assay as described in Eliopoulos GM and Moellering, Jr. […] Two different dilutions were used for iclaprim depending on the MIC determined for the bacterium. […]
experimental.readout: Σ FIC

Please state, for each entry, its recorded Σ FIC.
1. COc1ccc(C[C@H](N)C(=O)N[C@H]2[C@@H](O)[C@H](n3cnc4c(N(C)C)ncnc43)O[C@@H]2CO)cc1
2. CO[C@H]1/C=C/O[C@@]2(C)Oc3c(C)c(O)c4c(O)c(c(/C=N/N5CCN(C)CC5)c(O)c4c3C2=O)NC(=O)/C(C)=C\C=C\[C@H](C)[C@H](O)[C@@H](C)[C@@H](O)[C@@H](C)[C@H](OC(C)=O)[C@@H]1C
3. CN[C@H](CC(C)C)C(=O)N[C@H]1C(=O)N[C@@H](CC(N)=O)C(=O)N[C@H]2C(=O)N[C@H]3C(=O)N[C@H](C(=O)N[C@H](C(=O)O)c4cc(O)cc(O)c4-c4cc3ccc4O)[C@H](O)c3ccc(c(Cl)c3)Oc3cc2cc(c3O[C@@H]2O[C@H](CO)[C@@H](O)[C@H](O)[C@H]2O[C@H]2C[C@](C)(N)[C@H](O)[C@H](C)O2)Oc2ccc(cc2Cl)[C@H]1O

a:
1. 0.63-1.25
2. 0.75-0.76
3. 1.00-1.25

----------
Tested on: Streptococcus pneumoniae ATCC 49619
Assay: MIC determination
Format: cell-based
Conditions: Streptococcus pneumoniae, ATCC49619; S. pneumoniae 49619; 18 hours at 37° C., 5% CO2; read-out: Minimum inhibitory concentrations (MIC)
Kindly state MIC for each of the entries shown.
Numbers only, in mg/L.

Some solved entries appear below for comparison.
INSERT INTO assay_data (compound, reported) VALUES
  ('CO[C@@]1(NC(=O)C(C(=O)O)c2ccc(O)cc2)C(=O)N2C(C(=O)O)=C(CSc3nnnn3C)CO[C@@H]21 (stereo partly shown)', 1),
  ('COc1cc(Cc2cnc(N)nc2N)cc(OC)c1OC', 8),
  ('CCn1cc(C(=O)O)c(=O)c2cc(F)c(N3CCNCC3)cc21', 4),
  ('O=C(N[C@H](CO)[C@H](O)c1ccc([N+](=O)[O-])cc1)C(Cl)Cl', 4),
  ('[H]/N=C(/N)N[C@H]1[C@H](O)[C@@H](O)[C@H](O[C@@H]2O[C@@H](C)[C@](O)(C=O)[C@H]2O[C@@H]2O[C@@H](CO)[C@H](O)[C@@H](O)[C@@H]2NC)[C@@H](N/C(N)=N\[H])[C@@H]1O', 32);

Here is another compound to look at.
q: Answer with the recorded MIC for the compound listed here: "Cc1onc(-c2ccccc2Cl)c1C(=O)N[C@@H]1C(=O)N2[C@@H]1SC(C)(C)[C@@H]2C(=O)O"
a: 8

----------
System: Moraxella catarrhalis RA 21
Assay: checkerboard synergy assay with iclaprim
Assay type: cell-based
Conditions: antibiotic in combination with iclaprim; M. catarrhalis RA 21
experimental.readout: Con (Conclusion)

INSERT INTO results (mol, experimental_readout, reported) VALUES
  ('CC(=O)O[C@H]1C[C@@]2(C)[C@@H](C[C@@H](O)[C@H]3[C@@]4(C)CC[C@@H](O)[C@@H](C)[C@@H]4CC[C@@]32C)/C1=C(\CCC=C(C)C)C(=O)O', 'Con (Conclusion)', 'Ind (Indifference (Ind))'),
  ('C[C@@H]1O[C@@H]1P(=O)(O)O', 'Con (Conclusion)', 'Ind (Indifference (Ind))'),
  ('O=C(N[C@H](CO)[C@H](O)c1ccc([N+](=O)[O-])cc1)C(Cl)Cl', 'Con (Conclusion)', 'Ind (Indifference (Ind))');

----------
Kindly state MIC for each of the entries shown.
Test system: Klebsiella pneumoniae ATCC 33495
Experiment: MIC determination
Format: cell-based
Conditions: Klebsiella pneumoniae, ATCC33495; K. pneumonia 33495; 18 hours at 37° C.; read-out: Minimum inhibitory concentrations (MIC)
Answers are plain numbers, in µg/mL.

INSERT INTO assay_data (compound, unit, reported) VALUES
  ('CO/N=C(\C(=O)N[C@@H]1C(=O)N2C(C(=O)O)=C(COC(C)=O)CS[C@H]12)c1csc(N)n1', 'µg/mL', 0.5),
  ('CO[C@@]1(NC(=O)C(C(=O)O)c2ccc(O)cc2)C(=O)N2C(C(=O)O)=C(CSc3nnnn3C)CO[C@@H]21 (stereo partly drawn)', 'µg/mL', 8);

Here is another compound to look at.
q: Answer with the recorded MIC for the compound listed here: "CN(C)[C@@H]1C(O)=C(C(N)=O)C(=O)[C@@]2(O)C(O)=C3C(=O)c4c(O)cccc4[C@@](C)(O)[C@H]3C[C@@H]12"
a: 128

----------
Tested on: Staphylococcus aureus ATCC 25923
Assay: MIC determination
Format: cell-based
Details: Staphylococcus aureus, ATCC25923; S. aureus 25923; 18 hours at 37° C.; read-out: Minimum inhibitory concentrations (MIC)
experimental.readout: MIC (µg/mL)
Numbers only, in µg/mL.

INSERT INTO results (compound, experimental_readout, reported) VALUES
  ('CN(C)[C@@H]1C(O)=C(C(N)=O)C(=O)[C@@]2(O)C(O)=C3C(=O)c4c(O)cccc4[C@@](C)(O)[C@H]3C[C@@H]12', 'MIC', 0.5),
  ('CC[C@H]1OC(=O)[C@H](C)[C@@H](O[C@H]2C[C@@](C)(OC)[C@@H](O)[C@H](C)O2)[C@H](C)[C@@H](O[C@@H]2O[C@H](C)C[C@H](N(C)C)[C@H]2O)[C@](C)(O)C[C@@H](C)C(=O)[C@H](C)[C@@H](O)[C@]1(C)O', 'MIC', 0.5),
  ('CCn1cc(C(=O)O)c(=O)c2cc(F)c(N3CCNC(C)C3)c(F)c21 (stereo not drawn)', 'MIC', 1),
  ('CO[C@@]1(NC(=O)C(C(=O)O)c2ccc(O)cc2)C(=O)N2C(C(=O)O)=C(CSc3nnnn3C)CO[C@@H]21 (stereo partly drawn)', 'MIC', 1),
  ('C[C@H]1c2cccc(O)c2C(=O)C2=C(O)[C@]3(O)C(=O)C(C(N)=O)=C(O)[C@@H](N(C)C)[C@@H]3[C@@H](O)[C@@H]21', 'MIC', 0.5);

Please state, for each entry, its recorded MIC.
1. CO[C@@H]1[C@@H](OC(N)=O)[C@@H](O)[C@H](Oc2ccc3c(O)c(NC(=O)c4ccc(O)c(CC=C(C)C)c4)c(=O)oc3c2C)OC1(C)C
2. COc1cc(Cc2cnc(N)nc2N)cc(OC)c1OC
3. Cc1onc(-c2ccccc2Cl)c1C(=O)N[C@@H]1C(=O)N2[C@@H]1SC(C)(C)[C@@H]2C(=O)O
4. CO[C@H]1/C=C/O[C@@]2(C)Oc3c(C)c(O)c4c(O)c(c(/C=N/N5CCN(C)CC5)c(O)c4c3C2=O)NC(=O)/C(C)=C\C=C\[C@H](C)[C@H](O)[C@@H](C)[C@@H](O)[C@@H](C)[C@H](OC(C)=O)[C@@H]1C
5. NC(=O)c1cc[n+](CC2=C(C(=O)O)N3C(=O)[C@@H](NC(=O)[C@@H](c4ccccc4)S(=O)(=O)[O-])[C@H]3SC2)cc1

a:
1. 0.5
2. 1
3. 0.25
4. 0.031
5. 64
